Origin of the recorded values: patent US20250313572A1

Biological target: UniProt Q07820
Sequence (Q07820 whole entry): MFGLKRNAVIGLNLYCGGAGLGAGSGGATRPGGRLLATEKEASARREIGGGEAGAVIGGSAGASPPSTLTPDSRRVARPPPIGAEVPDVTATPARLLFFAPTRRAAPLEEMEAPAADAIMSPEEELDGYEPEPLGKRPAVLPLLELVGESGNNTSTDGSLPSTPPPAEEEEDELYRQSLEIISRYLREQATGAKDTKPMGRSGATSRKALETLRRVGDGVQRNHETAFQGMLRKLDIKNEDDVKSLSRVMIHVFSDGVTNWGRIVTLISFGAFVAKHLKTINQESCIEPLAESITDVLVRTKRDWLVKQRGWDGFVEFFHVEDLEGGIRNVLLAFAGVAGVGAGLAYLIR
Experiment: TR-FRET MCL-1 binding assay (competition with probe F-Bak)
Details: without HS; read-out: MCL-1 Binding Ki
quantity_measured: Ki (nM)
Please reply with the bare figure in nM and do not write the unit itself.

Reference set, count: 3
COCCOCCOCCOCC1(F)CC=C(c2nccc(COc3ccc4cc3C[C@H](C(=O)O)Oc3ncnc5sc(-c6ccc(F)cc6)c(c35)-c3c(C)c(Cl)c(c(Cl)c3C)O[C@H](CN3CCN(C)CC3)CO4)n2)CC1 (single isomer, unassigned) [Example 111] | 0.014
Cc1c(Cl)c2c(Cl)c(C)c1-c1c(-c3ccc(F)cc3)sc3ncnc(c13)O[C@@H](C(=O)O)Cc1cc(ccc1OCc1ccnc(-c3cccc(S(=O)(=O)N4CCOCC4)c3)n1)OC[C@@H](CN1CCN(C)CC1)O2 [Example 149] | 0.006
Cc1c(Cl)c2c(Cl)c(C)c1-c1c(-c3ccc(F)cc3)sc3ncnc(c13)O[C@@H](C(=O)O)Cc1cc(ccc1OCc1ccnc(-c3ccc(OC[C@@H]4CN(C)CCO4)cc3)n1)OC[C@@H](CN1CCN(C)CC1)O2 [Example 157] | 0.008

Continue with the compound presented below.
Req: Data request, read-out Ki, for Cc1c(Cl)c2c(Cl)c(C)c1-c1c(-c3ccc(F)cc3)sc3ncnc(c13)O[C@@H](C(=O)O)Cc1cc(ccc1OCc1ccnc(N3CC(C(CO)CO)C3)n1)OC[C@@H](CN1CCN(C)CC1)O2 [Example 65]
Resp: 0.195
